Attribution: patent US9073897B2

Assignment: determine reported α-glucosidase (IC50) Maltase for the given molecules.
biological target: Maltase; assay: α-glucosidase inhibition, rat small intestinal brush border membrane, maltose substrate; format: biochemical; conditions: rat small intestine brush border membrane; maltose (74 mM); 0.1M maleate buffer (pH6.0); 37° C. for 30 minutes
Output spec: scalar in µg/mL, unitless text.

Incoming: Given F[B-](F)(F)F.OC[C@H](OCc1ccccc1)[C@H](O)C[S@+]1C[C@@H](O)[C@H](O)[C@H]1CO , respond with its α-glucosidase (IC50) Maltase.
Outgoing: 0.44

Incoming: In one line, give reported α-glucosidase (IC50) Maltase of the entry O=S(=O)([O-])OC(CO)C(O)C[S+]1CC(O)C(O)C1CO (stereo not drawn) [Salacinol, salacinol, reference compound] .
Outgoing: 5.2

Incoming: For OCC(OCc1ccc(Cl)cc1)C(O)C[S+]1CC(O)C(O)C1CO (stereo not drawn) , write its α-glucosidase (IC50) Maltase.
Outgoing: 0.89

* * *

VALUE_KIND: pIC50
# pIC50 = -log10(concentration in molar units)

Incoming: Give the observed pIC50 of COC(CO)C(O)C[S+]1CC(O)C(O)C1CO (stereo not drawn) for Sucrase (Rattus norvegicus, UniProt P23739).
Outgoing: 5.77

Incoming: Please indicate recorded pIC50 of OCC(OCc1ccc(C(F)(F)F)cc1)C(O)C[S+]1CC(O)C(O)C1CO (stereo not drawn) measured with Sucrase (Rattus norvegicus, UniProt P23739).
Sequence (P23739 whole entry): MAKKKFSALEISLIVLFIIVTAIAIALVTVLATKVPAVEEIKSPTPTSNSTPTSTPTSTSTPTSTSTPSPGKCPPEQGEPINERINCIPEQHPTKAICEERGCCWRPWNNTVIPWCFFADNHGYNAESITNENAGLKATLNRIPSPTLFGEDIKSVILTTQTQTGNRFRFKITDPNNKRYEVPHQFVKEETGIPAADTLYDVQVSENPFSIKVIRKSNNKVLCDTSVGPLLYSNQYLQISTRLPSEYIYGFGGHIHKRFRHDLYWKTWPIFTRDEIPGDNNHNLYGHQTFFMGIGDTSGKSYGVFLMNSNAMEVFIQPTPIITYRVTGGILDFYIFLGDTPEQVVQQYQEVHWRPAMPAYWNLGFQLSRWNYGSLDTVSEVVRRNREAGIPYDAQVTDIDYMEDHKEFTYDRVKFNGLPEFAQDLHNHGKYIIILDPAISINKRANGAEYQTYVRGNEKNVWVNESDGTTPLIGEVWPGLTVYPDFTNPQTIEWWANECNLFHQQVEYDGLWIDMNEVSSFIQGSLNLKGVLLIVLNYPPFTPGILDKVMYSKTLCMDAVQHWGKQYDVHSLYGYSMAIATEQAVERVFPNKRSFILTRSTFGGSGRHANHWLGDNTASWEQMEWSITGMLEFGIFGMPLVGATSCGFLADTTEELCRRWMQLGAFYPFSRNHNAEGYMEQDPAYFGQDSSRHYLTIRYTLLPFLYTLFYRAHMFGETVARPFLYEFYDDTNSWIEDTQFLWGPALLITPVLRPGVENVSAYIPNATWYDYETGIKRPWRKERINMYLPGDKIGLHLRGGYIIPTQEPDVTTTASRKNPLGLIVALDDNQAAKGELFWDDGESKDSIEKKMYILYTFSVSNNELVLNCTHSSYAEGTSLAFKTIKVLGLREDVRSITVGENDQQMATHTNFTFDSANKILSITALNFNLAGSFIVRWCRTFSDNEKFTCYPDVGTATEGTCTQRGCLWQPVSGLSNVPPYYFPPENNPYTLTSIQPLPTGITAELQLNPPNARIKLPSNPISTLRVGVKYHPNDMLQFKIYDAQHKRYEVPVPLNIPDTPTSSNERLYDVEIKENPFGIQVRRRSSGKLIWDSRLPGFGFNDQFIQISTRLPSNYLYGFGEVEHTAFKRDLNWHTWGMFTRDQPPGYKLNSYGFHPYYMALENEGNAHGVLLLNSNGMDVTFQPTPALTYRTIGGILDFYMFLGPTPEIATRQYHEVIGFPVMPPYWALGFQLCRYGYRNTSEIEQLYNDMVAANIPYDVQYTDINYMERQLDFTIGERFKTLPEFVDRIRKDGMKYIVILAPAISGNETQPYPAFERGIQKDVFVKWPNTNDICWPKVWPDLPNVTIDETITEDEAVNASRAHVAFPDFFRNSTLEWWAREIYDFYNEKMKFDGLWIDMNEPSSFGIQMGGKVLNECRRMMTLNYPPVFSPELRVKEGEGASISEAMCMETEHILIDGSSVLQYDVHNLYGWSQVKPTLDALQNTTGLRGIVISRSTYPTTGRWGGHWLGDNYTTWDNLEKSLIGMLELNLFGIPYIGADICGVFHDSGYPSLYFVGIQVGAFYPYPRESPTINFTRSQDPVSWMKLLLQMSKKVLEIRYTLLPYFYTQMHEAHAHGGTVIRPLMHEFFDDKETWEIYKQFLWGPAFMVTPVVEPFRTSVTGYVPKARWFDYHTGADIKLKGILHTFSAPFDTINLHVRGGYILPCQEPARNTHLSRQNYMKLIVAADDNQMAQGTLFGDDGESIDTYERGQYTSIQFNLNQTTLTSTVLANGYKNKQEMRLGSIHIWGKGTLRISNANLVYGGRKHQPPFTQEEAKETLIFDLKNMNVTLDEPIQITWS
Outgoing: 5.87

Incoming: System Sucrase (Rattus norvegicus, UniProt P23739). Read-out pIC50. Item O=[N+]([O-])c1ccc(COC(CO)C(O)C[S+]2CC(O)C(O)C2CO)cc1 (stereo not drawn) . Report value.
Outgoing: 6.01

Incoming: Consider the compound CCCCCOC(CO)C(O)C[S+]1CC(O)C(O)C1CO (stereo not drawn) tested on Sucrase (Rattus norvegicus, UniProt P23739); state its pIC50.
Outgoing: 5.81

Incoming: Check Sucrase (Rattus norvegicus, UniProt P23739) data and give pIC50 for CCOC(CO)C(O)C[S+]1CC(O)C(O)C1CO (stereo not drawn) .
Outgoing: 6.37

Incoming: Consider the compound OCC(CO)N[C@H]1C[C@](O)(CO)[C@@H](O)[C@H](O)[C@H]1O [voglibose, reference compound] tested on Sucrase (Rattus norvegicus, UniProt P23739); state its pIC50.
Outgoing: 6.08

Incoming: Answer with pIC50 of CC(C)(C)COC(CO)C(O)C[S+]1CC(O)C(O)C1CO (stereo not drawn) measured for Sucrase (Rattus norvegicus, UniProt P23739).
Outgoing: 6.56

Incoming: Name the value of pIC50 reported for O=S(=O)([O-])OC(CO)C(O)C[S+]1CC(O)C(O)C1CO (stereo not drawn) [Salacinol, salacinol, reference compound] when tested on Sucrase (Rattus norvegicus, UniProt P23739).
Outgoing: 5.32

Incoming: Recall the reported pIC50 of OCC(OCc1ccc(Cl)cc1)C(O)C[S+]1CC(O)C(O)C1CO (stereo not drawn) when tested on Sucrase (Rattus norvegicus, UniProt P23739).
Outgoing: 5.72

* * *

VALUE_KIND: pIC50
In textbook form, pIC50 equals minus log to base ten of the concentration in mol/L.

Incoming: Name the value of pIC50 reported for O=[N+]([O-])c1ccc(COC(CO)C(O)C[S+]2CC(O)C(O)C2CO)cc1 (stereo not drawn) [Compound (Iv)] when tested on Isomaltase (Rattus norvegicus, UniProt P23739).
Sequence (P23739 whole entry): as above
Outgoing: 6.23

Incoming: Recall the reported pIC50 of OCC(CO)N[C@H]1C[C@](O)(CO)[C@@H](O)[C@H](O)[C@H]1O [voglibose, reference compound] on Isomaltase (Rattus norvegicus, UniProt P23739) and write it down.
Outgoing: 5.10

Incoming: Report pIC50 from Isomaltase (Rattus norvegicus, UniProt P23739) testing of OCC(OCc1ccccc1Cl)C(O)C[S+]1CC(O)C(O)C1CO (stereo not drawn) [Compound (Ik)]
Outgoing: 6.16

Incoming: Print Isomaltase (Rattus norvegicus, UniProt P23739) pIC50 for COC(CO)C(O)C[S+]1CC(O)C(O)C1CO (stereo not drawn) [Compound (Ia)] .
Outgoing: 5.84

Incoming: Tell me pIC50 of O=S(=O)([O-])OC(CO)C(O)C[S+]1CC(O)C(O)C1CO (stereo not drawn) [Salacinol, salacinol, reference compound] when tested on Isomaltase (Rattus norvegicus, UniProt P23739).
Outgoing: 5.41

Incoming: Give reported pIC50 for CC(C)(C)COC(CO)C(O)C[S+]1CC(O)C(O)C1CO (stereo not drawn) [Compound (If)] (Isomaltase (Rattus norvegicus, UniProt P23739))
Outgoing: 6.07

Incoming: Provide the reported pIC50 (system: Isomaltase (Rattus norvegicus, UniProt P23739)) for OCC(OCc1ccccc1)C(O)C[S+]1CC(O)C(O)C1CO (stereo not drawn) [Compound (Ig) (X = Cl)]
Outgoing: 6.24

Incoming: Lab note: Isomaltase (Rattus norvegicus, UniProt P23739) assay, enter pIC50 for OCC(OCc1ccc(Cl)cc1)C(O)C[S+]1CC(O)C(O)C1CO (stereo not drawn) [Compound (Im)] here
Outgoing: 5.75

Incoming: Look up Isomaltase (Rattus norvegicus, UniProt P23739) data: pIC50 of Cc1cccc(COC(CO)C(O)C[S+]2CC(O)C(O)C2CO)c1 (stereo not drawn) [Compound (Ii)] , then report it.
Outgoing: 6.01
